test system: Trypanosoma cruzi; experiment: Trypanosoma cruzi phosphomannomutase and mannose-1-phosphate guanylyltransferase assay; assay type: functional; parameters: scale not given: direction of the effect not stated beside the values; conditions: 10 µM
reported property: Percent Effect (%)
One number for each entry, in %.

CC(=O)N(Cc1noc(C2CC2)n1)C1CCN(Cc2nccn2C)C1 (stereo unspecified)    -6.22
CCCNC(=O)N1CCC(Oc2cc(C)ccc2F)(C(=O)O)CC1    6.9
CNC(=O)[C@H]1C[C@@H]2CN(C(=O)c3ccco3)C[C@@H]2N1S(C)(=O)=O    3.48

Please give Percent Effect, item by item, for the list that follows.
1. Cc1cnn(CC2CN(Cc3nnc(-c4occc4C)o3)CCO2)c1 (stereo unspecified)
2. Cc1cc(OCC(=O)NC(C)c2ccc(N3CCOCC3)cc2)no1 (stereo unspecified)
3. CCCc1nc(C)cc(N2CCC3(CCC(=O)N(CC4CC4)C3)CC2)n1

output:
1: 3.06; 2: 5.61; 3: -3.03
